assay text: Resistance to Poly (ADP-Ribose) Polymerase inhibitor: Gene Identification via Genome-wide siRNA Screen
particulars: mouse BRCA2 R2336H ES cells, olaparib, CellTiter-Glo viability; stronger effect = higher value
Method: The role of Poly (ADP-Ribose) Polymerase (PARP) proteins in DNA repair has been elegantly utilized for the synthetic lethality-based treatment of BRCA-deficient tumors by PARP inhibitors. […] Transfections were performed in 384 well plates (Corning 3707). […] Cell viability was measured using CellTiter Glo (Promega). […] PARPi (olaparib, AZD2281) was added 48 h post-transfection (500 nM) and viability (CellTiter Glo, Promega) was assayed 72 h later on a PerkinElmer Envision 2104 Multilabel plate reader. […]
Screen size: about 52,000 sequences; about 210 (0.4%) were called active. Only a selection was taken, and actives are over-represented in it overall.
property measured: z-score

Examples with answers:
macromolecule sequence | value
CGAUGACAUCAGGAUUGUUTT against Gpr128 | 1.23 (active)
GGUCAAUUCCCAUACCCUGTT against Trfr2 | 0.815 (inactive)
GGAUGAAAUUAACUCUGAATT against Adprt1 | 2.49 (active)

Please find the next sequence below.
State its z-score: GCCUUCAAAUGAAGGAAGGTT against Olfr699
-0.519 (inactive)

Cited source: PubChem BioAssay AID1347423
